Items are presented alongside their recorded Accumulative excretion amount.
Experiment: Urinary excretion study in rats after oral NS, SF or CNS (LC–MS/MS)
Assay type: in vivo
Details: rat urine, oral NS 60 mg/kg, 24 h
Could you give me the number in µg? Just the number is fine.

Observe how each entry below is paired with its result.
COMPOUND	READING_UNIT	Accumulative excretion amount
CC(C)=CCC[C@](C)(O[C@@H]1O[C@H](CO[C@@H]2O[C@H](CO)[C@@H](O)[C@H](O)[C@H]2O)[C@@H](O)[C@H](O)[C@H]1O)[C@H]1CC[C@]2(C)[C@@H]1[C@H](O)C[C@@H]1[C@@]3(C)CC[C@H](O[C@@H]4O[C@H](CO)[C@@H](O)[C@H](O)[C@H]4O[C@@H]4O[C@H](CO)[C@@H](O)[C@H](O)[C@H]4O)C(C)(C)[C@@H]3CC[C@]12C [ginsenoside Rb1]	µg	1.881
CC(C)=CCC[C@](C)(O[C@@H]1O[C@H](CO)[C@@H](O)[C@H](O)[C@H]1O)[C@H]1CC[C@]2(C)[C@@H]1[C@H](O)C[C@@H]1[C@@]3(C)CC[C@H](O)C(C)(C)[C@@H]3[C@@H](O[C@@H]3O[C@H](CO)[C@@H](O)[C@H](O)[C@H]3O[C@@H]3O[C@@H](C)[C@H](O)[C@@H](O)[C@H]3O)C[C@]12C [ginsenoside Re]	µg	0.745
CC(C)=CCC[C@](C)(O[C@@H]1O[C@H](CO)[C@@H](O)[C@H](O)[C@H]1O)[C@H]1CC[C@]2(C)[C@@H]1[C@H](O)C[C@@H]1[C@@]3(C)CC[C@H](O)C(C)(C)[C@@H]3[C@@H](O[C@@H]3O[C@H](CO)[C@@H](O)[C@H](O)[C@H]3O)C[C@]12C [ginsenoside Rg1]	µg	15.697

Please report the recorded Accumulative excretion amount for CC(C)=CCC[C@](C)(O[C@@H]1O[C@H](CO)[C@@H](O)[C@H](O)[C@H]1O)[C@H]1CC[C@]2(C)[C@@H]1[C@H](O)C[C@@H]1[C@@]3(C)CC[C@H](O[C@@H]4O[C@H](CO)[C@@H](O)[C@H](O)[C@H]4O[C@@H]4O[C@H](CO)[C@@H](O)[C@H](O)[C@H]4O)C(C)(C)[C@@H]3CC[C@]12C [ginsenoside Rd] . 0.279

* * *

Items are presented alongside their recorded Accumulative excretion amount.
Test: Urinary excretion study in rats after oral NS, SF or CNS (LC–MS/MS)
Assay type: in vivo
Conditions: rat urine, oral NS 60 mg/kg, 36 h
Could you give me the number in µg? Just the number is fine.

Observe how each entry below is paired with its result.
COMPOUND	READING_UNIT	Accumulative excretion amount
CC(C)=CCC[C@](C)(O[C@@H]1O[C@H](CO[C@@H]2O[C@H](CO)[C@@H](O)[C@H](O)[C@H]2O)[C@@H](O)[C@H](O)[C@H]1O)[C@H]1CC[C@]2(C)[C@@H]1[C@H](O)C[C@@H]1[C@@]3(C)CC[C@H](O[C@@H]4O[C@H](CO)[C@@H](O)[C@H](O)[C@H]4O[C@@H]4O[C@H](CO)[C@@H](O)[C@H](O)[C@H]4O)C(C)(C)[C@@H]3CC[C@]12C [ginsenoside Rb1]	µg	2.275
CC(C)=CCC[C@](C)(O[C@@H]1O[C@H](CO)[C@@H](O)[C@H](O)[C@H]1O)[C@H]1CC[C@]2(C)[C@@H]1[C@H](O)C[C@@H]1[C@@]3(C)CC[C@H](O)C(C)(C)[C@@H]3[C@@H](O[C@@H]3O[C@H](CO)[C@@H](O)[C@H](O)[C@H]3O)C[C@]12C [ginsenoside Rg1]	µg	16.042
CC(C)=CCC[C@](C)(O[C@@H]1O[C@H](CO)[C@@H](O)[C@H](O)[C@H]1O)[C@H]1CC[C@]2(C)[C@@H]1[C@H](O)C[C@@H]1[C@@]3(C)CC[C@H](O[C@@H]4O[C@H](CO)[C@@H](O)[C@H](O)[C@H]4O[C@@H]4O[C@H](CO)[C@@H](O)[C@H](O)[C@H]4O)C(C)(C)[C@@H]3CC[C@]12C [ginsenoside Rd]	µg	0.311

Please report the recorded Accumulative excretion amount for CC(C)=CCC[C@](C)(O[C@@H]1O[C@H](CO)[C@@H](O)[C@H](O)[C@H]1O)[C@H]1CC[C@]2(C)[C@@H]1[C@H](O)C[C@@H]1[C@@]3(C)CC[C@H](O)C(C)(C)[C@@H]3[C@@H](O[C@@H]3O[C@H](CO)[C@@H](O)[C@H](O)[C@H]3O[C@@H]3O[C@@H](C)[C@H](O)[C@@H](O)[C@H]3O)C[C@]12C [ginsenoside Re] . 0.782

* * *

Items are presented alongside their recorded Accumulative excretion amount.
Assay: Fecal excretion study in rats after oral NS, SF or CNS (LC–MS/MS)
Format: in vivo
Conditions: rat feces, oral NS 60 mg/kg, 36 h
Kindly report the value followed by its unit.

Observe how each entry below is paired with its result.
COMPOUND	Accumulative excretion amount
CC(C)=CCC[C@](C)(O[C@@H]1O[C@H](CO[C@@H]2O[C@H](CO)[C@@H](O)[C@H](O)[C@H]2O)[C@@H](O)[C@H](O)[C@H]1O)[C@H]1CC[C@]2(C)[C@@H]1[C@H](O)C[C@@H]1[C@@]3(C)CC[C@H](O[C@@H]4O[C@H](CO)[C@@H](O)[C@H](O)[C@H]4O[C@@H]4O[C@H](CO)[C@@H](O)[C@H](O)[C@H]4O)C(C)(C)[C@@H]3CC[C@]12C [ginsenoside Rb1]	100.721 ± 31.049 µg
CC(C)=CCC[C@](C)(O[C@@H]1O[C@H](CO)[C@@H](O)[C@H](O)[C@H]1O)[C@H]1CC[C@]2(C)[C@@H]1[C@H](O)C[C@@H]1[C@@]3(C)CC[C@H](O)C(C)(C)[C@@H]3[C@@H](O[C@@H]3O[C@H](CO)[C@@H](O)[C@H](O)[C@H]3O)C[C@]12C [ginsenoside Rg1]	101.659 ± 29.524 µg
CC(C)=CCC[C@](C)(O[C@@H]1O[C@H](CO)[C@@H](O)[C@H](O)[C@H]1O)[C@H]1CC[C@]2(C)[C@@H]1[C@H](O)C[C@@H]1[C@@]3(C)CC[C@H](O[C@@H]4O[C@H](CO)[C@@H](O)[C@H](O)[C@H]4O[C@@H]4O[C@H](CO)[C@@H](O)[C@H](O)[C@H]4O)C(C)(C)[C@@H]3CC[C@]12C [ginsenoside Rd]	45.004 ± 14.004 µg

Please report the recorded Accumulative excretion amount for CC(C)=CCC[C@](C)(O[C@@H]1O[C@H](CO)[C@@H](O)[C@H](O)[C@H]1O)[C@H]1CC[C@]2(C)[C@@H]1[C@H](O)C[C@@H]1[C@@]3(C)CC[C@H](O)C(C)(C)[C@@H]3[C@@H](O[C@@H]3O[C@H](CO)[C@@H](O)[C@H](O)[C@H]3O[C@@H]3O[C@@H](C)[C@H](O)[C@@H](O)[C@H]3O)C[C@]12C [ginsenoside Re] . 29.162 ± 9.141 µg

* * *

Test: Fecal excretion study in rats after oral NS, SF or CNS (LC–MS/MS)
Type: in vivo
Details: rat feces, oral CNS 110 mg/kg, 4 h
Items are presented alongside their recorded Accumulative excretion percentage.
Could you give me the number in %? Just the number is fine.

COMPOUND	READING_UNIT	Accumulative excretion percentage
CC(C)=CCC[C@](C)(O[C@@H]1O[C@H](CO)[C@@H](O)[C@H](O)[C@H]1O)[C@H]1CC[C@]2(C)[C@@H]1[C@H](O)C[C@@H]1[C@@]3(C)CC[C@H](O)C(C)(C)[C@@H]3[C@@H](O[C@@H]3O[C@H](CO)[C@@H](O)[C@H](O)[C@H]3O)C[C@]12C [ginsenoside Rg1]	%	0.474
CC(C)=CCC[C@](C)(O[C@@H]1O[C@H](CO)[C@@H](O)[C@H](O)[C@H]1O)[C@H]1CC[C@]2(C)[C@@H]1[C@H](O)C[C@@H]1[C@@]3(C)CC[C@H](O[C@@H]4O[C@H](CO)[C@@H](O)[C@H](O)[C@H]4O[C@@H]4O[C@H](CO)[C@@H](O)[C@H](O)[C@H]4O)C(C)(C)[C@@H]3CC[C@]12C [ginsenoside Rd]	%	0.343

Please report the recorded Accumulative excretion percentage for CC(C)=CCC[C@](C)(O[C@@H]1O[C@H](CO[C@@H]2O[C@H](CO)[C@@H](O)[C@H](O)[C@H]2O)[C@@H](O)[C@H](O)[C@H]1O)[C@H]1CC[C@]2(C)[C@@H]1[C@H](O)C[C@@H]1[C@@]3(C)CC[C@H](O[C@@H]4O[C@H](CO)[C@@H](O)[C@H](O)[C@H]4O[C@@H]4O[C@H](CO)[C@@H](O)[C@H](O)[C@H]4O)C(C)(C)[C@@H]3CC[C@]12C [ginsenoside Rb1] . 0.192

Here is the next compound: CC(C)=CCC[C@](C)(O[C@@H]1O[C@H](CO)[C@@H](O)[C@H](O)[C@H]1O)[C@H]1CC[C@]2(C)[C@@H]1[C@H](O)C[C@@H]1[C@@]3(C)CC[C@H](O)C(C)(C)[C@@H]3[C@@H](O[C@@H]3O[C@H](CO)[C@@H](O)[C@H](O)[C@H]3O[C@@H]3O[C@@H](C)[C@H](O)[C@@H](O)[C@H]3O)C[C@]12C [ginsenoside Re] 0.234

Every entry's value here was drawn from paper PMC6321168.
